Target: HLA-A*0203 (human)
Assay: competition with 125I-labelled standard peptide for purified HLA, gel filtration
readoutName: binding affinity ratio (IC50 of standard peptide / IC50 of test peptide)

P. PAKITDVVKVL (modifications not checked) [Kallikrein 129 …]
Q. PAELTDAVKVM (modifications not checked) [PSA 125 …]
R. PAKITDVV (modifications not checked) [Kallikrein 129 PAKITDVV]
Given 3 binders, produce a descending ranking by binding affinity ratio (IC50 of standard peptide / IC50 of test peptide). Put the labels in the requested order and list them out. P, Q, R
(P: 0.0017, Q: 0.0008, R: -0.0001)

Source listed as patent US20070020327A1.
